tested on: Plasmodium falciparum 3D7 (chloroquine-sensitive strain); assay: microbe, parasite or virus in culture; type: cell-based; conditions: intraerythrocytic form, chloroquine-sensitive strain; read-out: EC50 P. f. 3D7
Where a SMILES comes first, the peptide text is derived from it. [ ]: non-standard residue; d: D form. The star is where a group is joined. Trt = c1ccc(C(c2ccccc2)(c2ccccc2)*)cc1; Sar = CNCC(=O)O; tBu = CC(C)(C)*
assayReadout: pEC50
Give bare numbers, as −log10 of the molar value.

Sample answers from the record:
compound	pEC50
C[C@@H](OC(C)(C)C)[C@@H]1NC(=O)CN(C)C(=O)[C@H](CSC(c2ccccc2)(c2ccccc2)c2ccccc2)NC(=O)CN(C)C(=O)[C@H](CSC(c2ccccc2)(c2ccccc2)c2ccccc2)NC(=O)CN(C)C1=O [SP79] (cyclo(C(Trt)[Sar]C(Trt)[Sar]T(tBu)[Sar]))	9.00
C[C@@H](OC(C)(C)C)[C@@H]1NC(=O)CN(C)C(=O)[C@H](CSC(c2ccccc2)(c2ccccc2)c2ccccc2)NC(=O)CNC(=O)[C@H](CSC(c2ccccc2)(c2ccccc2)c2ccccc2)NC(=O)CN(C)C1=O [CF88] (cyclo(C(Trt)GC(Trt)[Sar]T(tBu)[Sar]))	9.60
C[C@@H](OC(C)(C)C)[C@@H]1NC(=O)CNC(=O)[C@H](CSC(c2ccccc2)(c2ccccc2)c2ccccc2)NC(=O)CNC(=O)[C@H](CSC(c2ccccc2)(c2ccccc2)c2ccccc2)NC(=O)CN(C)C1=O [CF90] (cyclo(C(Trt)GC(Trt)GT(tBu)[Sar]))	8.85
COC(=O)CC[C@@H]1NC(=O)CN(C)C(=O)[C@H](CSC(c2ccccc2)(c2ccccc2)c2ccccc2)NC(=O)CN(C)C(=O)[C@H](CSC(c2ccccc2)(c2ccccc2)c2ccccc2)NC(=O)CN(C)C1=O [CFfs49.5] (cyclo(C(Trt)[Sar]C(Trt)[Sar]E(OMe)[Sar]))	8.28

As a next step, examine the compound that follows.
// pEC50 value for CN1CC(=O)N[C@@H](CSC(c2ccccc2)(c2ccccc2)c2ccccc2)C(=O)N(C)CC(=O)N[C@@H](CSC(c2ccccc2)(c2ccccc2)c2ccccc2)C(=O)N(C)CC(=O)N[C@@H](CCC(=O)O)C1=O [CFfs49.4] (cyclo(C(Trt)[Sar]C(Trt)[Sar]E[Sar])) : 7.92
